# System: MEK4
# Construct: gene MAP2K4
# condition.summary: concentration: 1 μM, replicates: in singlicate; n = 1;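 also: KINOMEscan kinase panel screen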
observed.property: %Inh (%)

compound | assay.target | observed.property | reading.unit | value.observed
Fc1cc(Cl)ccc1Nc1ccnc2cc(-c3ccc(CN4CCOCC4)o3)ccc12 | MEK4 | %Inh | % | 31
CCNc1nccc(-c2c(-c3ccc(F)cc3)ncn2C2CCN(C)CC2)n1 | MEK4 | %Inh | % | 0
Cl.Cl.NC(CNC(=O)c1cc(Br)c(-c2ccnc3[nH]ccc23)s1)c1ccccc1 (stereo not drawn) | MEK4 | %Inh | % | 57
Fc1cc(Cl)ccc1Nc1ccnc2cc(-c3ccc(CN4CCSCC4)o3)ccc12 | MEK4 | %Inh | % | 3
Cc1nn2c(=O)cc(N3CCO[C@H](C)C3)nc2n1Cc1cccc(Cl)c1Cl | MEK4 | %Inh | % | 27
Cc1ccc(C)c(NC(=O)Nc2ccc(C)c(-c3ccc(C(=O)Nc4ccncc4)cc3)c2)c1 | MEK4 | %Inh | % | 26
CCn1cnc2c(NCc3ccccc3)ncnc21 | MEK4 | %Inh | % | 23
Cl.Cl.NCC(NC(=O)c1cc(-c2cccnc2)c(-c2ccnc3[nH]ccc23)s1)c1ccccc1 (stereo not drawn) | MEK4 | %Inh | % | 25
Cl.N#CCc1ccc(Nc2nccc(Nc3ccc(Oc4ccccc4)cc3)n2)cc1 | MEK4 | %Inh | % | 22
O=C(Nc1n[nH]c2nc(-c3ccccc3O)ccc12)C1CC1 | MEK4 | %Inh | % | 34
Nc1ncnc2scc(-c3ccc(NC(=O)Cc4cc(F)ccc4F)cc3)c12.O=C(O)C(F)(F)F | MEK4 | %Inh | % | 18
COc1cc(Nc2nccc(N3CCC(NS(=O)(=O)c4ccc(NC(C)=O)cc4)CC3)n2)cc(OC)c1OC | MEK4 | %Inh | % | 14
O=C(O)C(F)(F)F.O=c1[nH]ccc2nc(N[C@@H]3CCNC3)nc(Nc3cc(Cl)cc(Cl)c3)c12 | MEK4 | %Inh | % | 72
COc1cccc2c(-c3ccncc3)c(-c3ccc(F)cc3)nn12 | MEK4 | %Inh | % | 19
Cn1cc(-c2cnc(N)c3c(-c4ccc5c(c4)CCN5C(=O)Cc4ccccc4)csc23)cn1 | MEK4 | %Inh | % | 56
COc1cccc(-c2nc(-c3ccccc3)[nH]c2-c2ccncc2)c1 | MEK4 | %Inh | % | 0
Nc1cccc(-c2ccc3c(N)n[nH]c3c2)c1 | MEK4 | %Inh | % | 12
CC(C)c1nc(-c2ccc(F)c(NS(=O)(=O)c3c(F)cccc3F)c2)c(-c2ccnc(Nc3ccc(N4CCOCC4)nc3)n2)s1 | MEK4 | %Inh | % | 100
CCn1c(-c2nonc2N)nc2c(-c3ccccc3)ncc(OCCCN)c21.O=C(O)C(F)(F)F.O=C(O)C(F)(F)F | MEK4 | %Inh | % | 13
O=C(O)C(F)(F)F.O=c1[nH]ccc2nc(N[C@@H]3CCNC3)nc(Nc3ccc4c(c3)S(=O)(=O)CC4)c12 | MEK4 | %Inh | % | 91
CN(C)CCNS(=O)(=O)c1ccc(-c2ccnc3[nH]ccc23)cc1 | MEK4 | %Inh | % | 19
Cn1cc(-c2ccc3c(c2)CCN3C(=O)Cc2cc(F)cc(C(F)(F)F)c2)c2c(N)ncnc21 | MEK4 | %Inh | % | 29
NCCC(NC(=O)c1cc(Br)c(-c2ccnc3[nH]ccc23)s1)c1ccccc1.O=C(O)C(F)(F)F.O=C(O)C(F)(F)F (stereo not drawn) | MEK4 | %Inh | % | 52
CN(c1ccc(NC(=O)Nc2cccc(Cl)c2)cc1)c1ccnc(N)n1.Cl | MEK4 | %Inh | % | 0
c1ccc(Oc2ccc(Nc3ccnc4cc(-c5ccc(CN6CCCCC6)o5)ccc34)cc2)nc1 | MEK4 | %Inh | % | 0
CN(c1ccc(F)c(NC(=O)c2cccc(OC(C)(C)C#N)c2Cl)c1)c1ccc2nc(NC(=O)C3CC3)sc2n1 | MEK4 | %Inh | % | 26
CN(C)c1ncnc2nc[nH]c12 | MEK4 | %Inh | % | 8

====

# Tested on: TYK2(JH2domain-pseudokinase)
# condition.summary: concentration: 1 μM, replicates: in singlicate; n = 1
Recorded %Inh determines the label; the label ranges are class 0 = under 10%, class 1 = from 10% up to 30%, class 2 = 30% and over

compound | assigned.class
CCOc1nccc(-c2c(-c3ccc(F)cc3)ncn2C2CCNCC2)n1 | class 2
Cn1cc(-c2ccc3c(c2)CCN3C(=O)Cc2cc(F)cc(C(F)(F)F)c2)c2c(N)ncnc21 | class 0
O=C1NC(=O)C(c2ccccc2Cl)=C1Nc1cccc(Cl)c1 | class 1
Cc1ccc(O)cc1Nc1ccnc2ccc(C(C)(C)C)cc12 | class 2
COC(=O)Nc1nc2cc(Oc3ccc(NC(=O)Nc4cccc(SC)c4)cc3)ccc2[nH]1.Cl | class 1
Cc1ccc(Nc2ccnc(Nc3ccc(C)c(F)c3)n2)cc1O.Cl | class 2
COc1cc(Nc2nccc(N3CCC(NC(=O)Nc4ccc5c(c4)OCO5)C3)n2)cc(OC)c1OC (centres unmarked) | class 2
O=C(O)C(F)(F)F.O=c1[nH]ccc2nc(N[C@@H]3CCNC3)nc(Nc3cc(Cl)cc(Cl)c3)c12 | class 1
CC(C)(C)c1ccc(C(=O)Nc2cn3cc(-n4ccnc4)ccc3n2)cc1 | class 1
Cc1ccc(NC(=O)c2ccnc(N3CCCCC3)c2)cc1-c1ccc(C(=O)NCC2CC2)cc1 | class 0
O=C(Nc1n[nH]c2nc(-c3ccccc3O)ccc12)C1CC1 | class 0
Cc1ccc(-c2ccc3occ(-c4ccc(S(C)=O)cc4)c3c2)nn1 (centres unmarked) | class 1
O=C(Nc1c(F)cccc1F)c1cc(C(=O)c2ccccc2F)c[nH]1 | class 0

====

# Tested on: MKK7
# condition.summary: concentration: 1 μM, replicates: in singlicate; n = 1

compound | reading.unit | %Inh
Cc1ccc(O)cc1Nc1ccnc2cc(-c3ccc(CN4CCCCC4)o3)ccc12 [GW557777] | % | 0
CC(=O)Nc1cn2nc(Oc3cccc(NC(=O)c4cccc(C(F)(F)F)c4)c3)ccc2n1 | % | 0
CN(C)CCNS(=O)(=O)c1ccc(-c2ccnc3[nH]ccc23)cc1 [GSK977620] | % | 6
O=C(Nc1n[nH]c2nc(-c3ccccc3O)ccc12)C1CC1 [SB-711880] | % | 0
CCNC(=O)/C=C/c1n[nH]c2cc(Sc3ccccc3C(=O)NC)ccc12 | % | 0
Cc1cccc(Nc2nc(N[C@H]3CCCC[C@H]3N)ncc2C(N)=O)c1.Cl [GSK986310] | % | 0

====

# Test system: WNK2
# condition.summary: concentration: 1 μM, replicates: in singlicate; n = 1
Here the recorded %Inh is given for each entry.
observed.property: %Inh (%)

compound | reading.unit | value.observed
O=C(O)C(F)(F)F.O=c1[nH]ccc2nc(N[C@@H]3CCNC3)nc(Nc3cc(Cl)cc(Cl)c3)c12 [GSK2188764] | % | 26
Cc1nn2c(=O)cc(N3CCO[C@H](C)C3)nc2n1Cc1cccc(Cl)c1Cl [GSK2373693] | % | 18
Cc1ccc(Nc2ccnc(Nc3ccc(C)c(F)c3)n2)cc1O.Cl [GW582868] | % | 12
Cc1ccc(C)c(NC(=O)Nc2ccc(C)c(-c3ccc(C(=O)Nc4ccncc4)cc3)c2)c1 [GSK1398473] | % | 97.6
CN(C)c1ncnc2nc[nH]c12 [SKF-31736] | % | 0
O=C(Nc1n[nH]c2nc(-c3cccc(O)c3)ccc12)C1CC1 [SB-711805] | % | 26
O=C(Nc1n[nH]c2nc(-c3ccccc3O)ccc12)C1CC1 [SB-711880] | % | 30
CN(c1ccc(NC(=O)Nc2cccc(Cl)c2)cc1)c1ccnc(N)n1.Cl [GW830707] | % | 12

====

Entries annotated with measured %Inh
# System: EPHA8
# condition.summary: concentration: 1 μM, replicates: in singlicate; n = 1

structure.string | %Inh, %
Cc1cccc(Nc2nc(NCCN)ncc2C(N)=O)c1 | 58
O=C(Nc1n[nH]c2cc(-c3cccs3)ccc12)C1CC1 | 0
CN(C)CCNS(=O)(=O)c1ccc(-c2ccnc3[nH]ccc23)cc1 | 3
Cl.O=C(Nc1ccc(Oc2ccc3[nH]c(NC(=O)c4ccco4)nc3c2)cc1)Nc1cc(C(F)(F)F)ccc1F | 99.5

====

This listing pairs compounds with measured %Inh.
# System: MEK6
# Construct: gene MAP2K6
# condition.summary: concentration: 1 μM, replicates: in singlicate; n = 1

compound | reading.unit | %Inh
CC(C)c1nc(-c2ccc(F)c(NS(=O)(=O)c3c(F)cccc3F)c2)c(-c2ccnc(Nc3ccc(N4CCOCC4)nc3)n2)s1 | % | 22
CCOc1nccc(-c2c(-c3ccc(F)cc3)ncn2C2CCNCC2)n1 | % | 18
CC(C)NCC(Cc1ccccc1)NC(=O)c1cc(Br)c(-c2ccnc3[nH]ccc23)s1.Cl.Cl (stereo not drawn) | % | 79
Cc1ccccc1CC(=O)N1CCc2cc(-c3cn(C)c4ncnc(N)c34)ccc21 | % | 73
Nc1ncc(-c2ccc3nccc(-c4ccncc4)c3c2)cc1S(=O)(=O)N1CCCCC1 | % | 12
Cc1ccc(Nc2ccnc(Nc3ccc(C)c(F)c3)n2)cc1O.Cl | % | 0
Cc1cc(-c2c(-c3ccc(F)cc3)ncn2CCCN2CCOCC2)nc(N)n1 | % | 29
CCn1cnc2c(NCc3ccccc3)ncnc21 | % | 9
Cc1cccc(Nc2nc(N[C@H]3CCCC[C@H]3N)ncc2C(N)=O)c1.Cl | % | 5
Nc1ncnc2scc(-c3ccc(NC(=O)Cc4cc(F)ccc4F)cc3)c12.O=C(O)C(F)(F)F | % | 11
Cn1cc(-c2cnc(N)c3c(-c4ccc5c(c4)CCN5C(=O)Cc4ccccc4)csc23)cn1 | % | 7
O=C(Nc1c(F)cccc1F)c1cc(C(=O)c2ccccc2F)c[nH]1 | % | 0
Cc1nn2c(=O)cc(N3CCO[C@H](C)C3)nc2n1Cc1cccc(Cl)c1Cl | % | 0
CN(c1ccc(F)c(NC(=O)c2cccc(OC(C)(C)C#N)c2Cl)c1)c1ccc2nc(NC(=O)C3CC3)sc2n1 | % | 0
N#Cc1cnc2cc(-c3cnc(CNCCN4CCOCC4)s3)ccc2c1Nc1ccc(Oc2ccccc2)cc1 | % | 0
COc1cc(Nc2ccnc3cc(-c4ccncc4)ccc23)cc(OC)c1OC.Cl | % | 0
Cn1cc(-c2ccc3c(c2)CCN3C(=O)Cc2cc(F)cc(F)c2F)c2c(N)ncnc21 | % | 0
COc1ccc(C)c(Nc2ccnc(Nc3ccc(-c4cnc[nH]4)cc3)n2)c1.Cl | % | 0
COc1ccc(C2=C(Nc3cccc(O)c3)C(=O)NC2=O)cc1 | % | 0
CNc1nccc(-c2ccc3c(N)n[nH]c3c2)n1 | % | 9
COc1cccc2c(-c3ccncc3)c(-c3ccc(F)cc3)nn12 | % | 0
Cc1ccc(NC(=O)c2ccc(Cl)c(Cl)c2)cc1-c1ccc(C(=O)Nc2ccncc2)cc1 | % | 5
CCn1c(-c2nonc2N)nc2c(-c3ccccc3)ncc(OCCCN)c21.O=C(O)C(F)(F)F.O=C(O)C(F)(F)F | % | 0
N#CC1(c2cccc(C(=O)Nc3cccc(Oc4ccc5nc(NC(=O)C6CC6)sc5n4)c3)c2)CC1 | % | 18
